Target: human FXR (NR1H4) (Homo sapiens, UniProt Q96RI1)
Construct: host or cells: CHO (Chinese hamster ovary) reporter cells
Sequence (Q96RI1 1-486): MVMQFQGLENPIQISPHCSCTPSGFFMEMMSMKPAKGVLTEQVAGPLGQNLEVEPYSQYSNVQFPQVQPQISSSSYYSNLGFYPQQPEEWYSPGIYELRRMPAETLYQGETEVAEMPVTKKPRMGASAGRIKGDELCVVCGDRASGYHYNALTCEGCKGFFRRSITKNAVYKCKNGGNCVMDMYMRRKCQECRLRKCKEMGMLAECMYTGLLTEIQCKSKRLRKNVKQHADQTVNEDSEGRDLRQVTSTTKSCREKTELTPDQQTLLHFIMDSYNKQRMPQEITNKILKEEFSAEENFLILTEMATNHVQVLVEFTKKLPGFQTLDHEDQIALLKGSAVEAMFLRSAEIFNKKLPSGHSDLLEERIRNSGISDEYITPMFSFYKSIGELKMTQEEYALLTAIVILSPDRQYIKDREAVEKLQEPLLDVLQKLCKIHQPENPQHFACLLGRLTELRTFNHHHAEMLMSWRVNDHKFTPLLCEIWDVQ
Experiment: Human FXR (NR1H4) Assay: Gal4 promoter driven luciferase reporter transactivation in CHO cells (Indigo Bioscience kit IB00601); further: efficacy normalized to CDCA set as 100%
Assay type: cell-based
Conditions: CHO; read-out: Efficacy (%)
Procedure: Human FXR (NR1H4) Assay Determination of a ligand mediated Gal4 promoter driven transactivation to quantify ligand binding mediated activation of FXR. […] The principle application of this reporter assay system is to quantify functional activity of human FXR. […] Luminescence intensity of the reaction is quantified using a plate-reading luminometer, Envision. […] Cells were incubated for additional 22 hours before luciferase activities were measured. […] Read time may be 0.5 second (500 mSec) per well.
Known Emax of a selection of compounds
attribute measured: Emax (%)

compound	attribute measured	observed result
COC(=O)c1ccc2nc(N3C4CCC3CC(NCc3c(-c5c(Cl)cccc5Cl)noc3C3CC3)C4)c(OC)nc2c1 (stereo not shown)	Emax	115
CC(C)(C)CS(=O)(=O)NC(=O)c1ccc2nc(N3C4CCC3CC(NCc3c(-c5c(Cl)cccc5Cl)noc3C3CC3)C4)sc2c1 (stereo not shown)	Emax	201
CC(C)Oc1cc(C(=O)O)cc2sc(N3C4CCC3CC(NCc3c(-c5c(Cl)cccc5Cl)noc3C3CC3)C4)nc12 (stereo not shown)	Emax	93.5
Cc1cc(C(=O)O)cc2sc(N3C4CCC3CC(NCc3c(-c5c(Cl)cccc5Cl)noc3C3CC3)C4)nc12 (stereo not shown)	Emax	109
O=C(NS(=O)(=O)N1CCCCC1)c1cc(F)c2nc(N3CCC(NCc4c(-c5c(Cl)cccc5Cl)noc4C4CC4)CC3)sc2c1	Emax	79
CC1(S(=O)(=O)NC(=O)c2cc(F)c3nc(N4C5CCC4CC(NCc4c(-c6ccccc6OC(F)(F)F)noc4C4CC4)C5)sc3c2)CC1 (stereo not shown)	Emax	109
CC1(S(=O)(=O)NC(=O)c2cnc3nc(N4C5CCC4CC(NCc4c(-c6c(Cl)cccc6Cl)noc4C4CC4)C5)sc3n2)CC1 (stereo not shown)	Emax	97.2
CC1(S(=O)(=O)NC(=O)c2cc(OC(F)F)c3nc(N4C5CCC4CC(NCc4c(-c6c(Cl)cccc6Cl)noc4C4CC4)C5)sc3c2)CC1 (stereo not shown)	Emax	150
O=C(O)c1ccc2nc(N3CCN(Cc4c(-c5c(Cl)cccc5Cl)noc4C4CC4)CC3)sc2c1	Emax	257
CC(C)Oc1cc(C(=O)NS(=O)(=O)C2CC2)cc2sc(N3CCC(NCc4c(-c5ccccc5OC(F)(F)F)noc4C4CC4)CC3)nc12	Emax	68.5
O=C(O)CNC(=O)c1cc(F)c2nc(N3C4CCC3CC(NCc3c(-c5c(Cl)cccc5Cl)noc3C3CC3)C4)sc2c1 (stereo not shown)	Emax	136
CN(C)S(=O)(=O)NC(=O)c1ccc2nc(N3C4CCC3CC(NCc3c(-c5c(Cl)cccc5Cl)noc3C3CC3)C4)sc2c1 (single isomer, unassigned) [Example 225]	Emax	126
CN(Cc1c(-c2c(Cl)cccc2Cl)noc1C1CC1)[C@H]1C[C@H]2CC[C@@H](C1)N2c1nc2ccc(C(=O)NS(=O)(=O)C3CC3)cc2s1	Emax	212
